Tested on: RXF 393 renal
PROTOCOL TEXT: NCI tumour cell line growth inhibition, 48 h; in the data active = GI50 below about 0.43 µM; inactive = the rest
Parameter call: string, one of 1 for active, 0 for inactive

These solved cases illustrate the format of a correct answer.
1. CCCCOC(=O)c1ccc(NC(=O)CCl)cc1
0
2. O=C(O)c1ccc([S-])cc1.[Au+].c1ccc(CN2[CH-]N(Cc3ccccc3)C(c3ccccc3)=C2c2ccccc2)cc1
1
3. O=C1C(Cl)=C(Nc2cccc(O)c2)C(=O)N1Cc1ccc(Cl)cc1
0
4. Cc1ccc(C(=O)/C(=C\c2ccc([N+](=O)[O-])cc2)S(=O)Cc2ccc(F)cc2)cc1 (centres undefined)
0
5. N#Cc1ccc(C2C3=C(CCCC3=O)OC3=C2C(=O)c2ccccc2C3=O)cc1 (centres undefined)
0
6. O=C(/C=C/c1cccc([N+](=O)[O-])c1)c1ccc(O)c(CN2CCN(c3cc4c(cc3F)c(=O)c(C(=O)O)cn4C3CC3)CC2)c1
0

Would you kindly look at the next entry?
# input Hey, what did the test say about "CC(C)(c1ccc(Oc2ccc(C#N)c(C#N)c2)cc1)c1ccc(Oc2ccc(C#N)c(C#N)c2)cc1" ?
# output 0
